- condition-notes: 298.15 K; 100 kPa; Liquid; Vibrating tube method
Provide the recorded mass density for the entries that follow.
Give the value in kg/m3 but do not write kg/m3 after it.

## Input Please report the recorded mass density for O=C1CCCCC1 [cyclohexanone] .
## Output 943.1

## Input Please report the recorded mass density for CCCCCCCCCCO [decan-1-ol] .
## Output 826.1

## Input Please report the recorded mass density for CCCCCO [pentan-1-ol] .
## Output 810.8

## Input Please report the recorded mass density for CCCCCCCO [heptan-1-ol] .
## Output 818.7

## Input Please report the recorded mass density for CCCCCCO [hexan-1-ol] .
## Output 815.1

## Input Please report the recorded mass density for CCCCCCCCO [octan-1-ol] .
## Output 821.4

## Input Please report the recorded mass density for CCCCCCCCCO [nonan-1-ol] .
## Output 824

---

- condition-notes: 293.15 K; 100 kPa; Liquid; Concentric cylinders viscometry
Numbers after ± are expanded uncertainties.
quantity: viscosity
Show the value, then the unit it is measured in.

## Input Please report the recorded viscosity for CCCCCCCCCO [nonan-1-ol] .
## Output 11.41 ± 0.57 mPa·s

## Input Please report the recorded viscosity for CCCCCCCCCCO [decan-1-ol] .
## Output 14.42 ± 0.72 mPa·s

## Input Please report the recorded viscosity for CCCCCCCCO [octan-1-ol] .
## Output 9.13 ± 0.46 mPa·s

## Input Please report the recorded viscosity for CCCCCCCO [heptan-1-ol] .
## Output 7.03 ± 0.35 mPa·s

## Input Please report the recorded viscosity for CCCCCO [pentan-1-ol] .
## Output 4.03 ± 0.2 mPa·s

## Input Please report the recorded viscosity for O=C1CCCCC1 [cyclohexanone] .
## Output 2.3 ± 0.12 mPa·s

## Input Please report the recorded viscosity for CCCCCCO [hexan-1-ol] .
## Output 5.37 ± 0.27 mPa·s

---

Provide the recorded mass density for the entries that follow.
- condition-notes: 308.15 K; 100 kPa; Liquid; Vibrating tube method
Give the value in kg/m3 but do not write kg/m3 after it.

## Input Please report the recorded mass density for "CCCCCO" .
## Output 803.3

## Input Please report the recorded mass density for "CCCCCCCO" .
## Output 811.6

## Input Please report the recorded mass density for "CCCCCCCCCCO" .
## Output 819.3

## Input Please report the recorded mass density for "O=C1CCCCC1" .
## Output 933.5

## Input Please report the recorded mass density for "CCCCCCCCO" .
## Output 814.4

## Input Please report the recorded mass density for "CCCCCCO" .
## Output 807.9

## Input Please report the recorded mass density for "CCCCCCCCCO" .
## Output 817.1

---

- condition-notes: 313.15 K; 100 kPa; Liquid; Concentric cylinders viscometry
Hi! Could you tag entries with viscosity below 3 mPa·s as condition met, and those at or above as condition not met? Much appreciated.

## Input # strict comparison: is reported viscosity < 3 mPa·s? input = CCCCCCCCO [octan-1-ol]
## Output condition not met

## Input # strict comparison: is reported viscosity < 3 mPa·s? input = CCCCCO [pentan-1-ol]
## Output condition met

## Input # strict comparison: is reported viscosity < 3 mPa·s? input = CCCCCCCO [heptan-1-ol]
## Output condition not met

## Input # strict comparison: is reported viscosity < 3 mPa·s? input = CCCCCCCCCCO [decan-1-ol]
## Output condition not met

## Input # strict comparison: is reported viscosity < 3 mPa·s? input = O=C1CCCCC1 [cyclohexanone]
## Output condition met

## Input # strict comparison: is reported viscosity < 3 mPa·s? input = CCCCCCCCCO [nonan-1-ol]
## Output condition not met

---

Provide the recorded viscosity for the entries that follow.
- condition-notes: 298.15 K; 100 kPa; Liquid; Concentric cylinders viscometry
Give the value in mPa·s but do not write mPa·s after it.

## Input Please report the recorded viscosity for CCCCCO [pentan-1-ol] .
## Output 3.49

## Input Please report the recorded viscosity for O=C1CCCCC1 [cyclohexanone] .
## Output 2.09

## Input Please report the recorded viscosity for CCCCCCCCCCO [decan-1-ol] .
## Output 11.8

## Input Please report the recorded viscosity for CCCCCCO [hexan-1-ol] .
## Output 4.58

## Input Please report the recorded viscosity for CCCCCCCO [heptan-1-ol] .
## Output 5.92

## Input Please report the recorded viscosity for CCCCCCCCCO [nonan-1-ol] .
## Output 9.43

## Input Please report the recorded viscosity for CCCCCCCCO [octan-1-ol] .
## Output 7.62

---

- condition-notes: 323.15 K; 100 kPa; Liquid; Vibrating tube method
Provide the recorded mass density for the entries that follow.
Give the value in kg/m3 but do not write kg/m3 after it.

## Input Please report the recorded mass density for CCCCCCCCCCO [decan-1-ol] .
## Output 808.9

## Input Please report the recorded mass density for CCCCCCCCCO [nonan-1-ol] .
## Output 806.5

## Input Please report the recorded mass density for O=C1CCCCC1 [cyclohexanone] .
## Output 920.7

## Input Please report the recorded mass density for CCCCCO [pentan-1-ol] .
## Output 792

## Input Please report the recorded mass density for CCCCCCO [hexan-1-ol] .
## Output 796.8

## Input Please report the recorded mass density for CCCCCCCO [heptan-1-ol] .
## Output 800.7

## Input Please report the recorded mass density for CCCCCCCCO [octan-1-ol] .
## Output 803.7

---

- condition-notes: 308.15 K; 100 kPa; Liquid; Concentric cylinders viscometry
Numbers after ± are expanded uncertainties.
quantity: viscosity

## Input Please report the recorded viscosity for CCCCCCCCCO [nonan-1-ol] .
## Output 6.61 ± 0.33 mPa·s

## Input Please report the recorded viscosity for O=C1CCCCC1 [cyclohexanone] .
## Output 1.75 ± 0.09 mPa·s

## Input Please report the recorded viscosity for CCCCCO [pentan-1-ol] .
## Output 2.65 ± 0.13 mPa·s

## Input Please report the recorded viscosity for CCCCCCCCCCO [decan-1-ol] .
## Output 8.14 ± 0.41 mPa·s

## Input Please report the recorded viscosity for CCCCCCCCO [octan-1-ol] .
## Output 5.43 ± 0.27 mPa·s

## Input Please report the recorded viscosity for CCCCCCCO [heptan-1-ol] .
## Output 4.3 ± 0.22 mPa·s

## Input Please report the recorded viscosity for CCCCCCO [hexan-1-ol] .
## Output 3.4 ± 0.17 mPa·s

---

- condition-notes: 323.15 K; 100 kPa; Liquid; Concentric cylinders viscometry
± gives the expanded uncertainty stated by the source.
Provide the recorded viscosity for the entries that follow.
Show the value, then the unit it is measured in.

## Input Please report the recorded viscosity for "CCCCCCCCCCO" .
## Output 4.96 ± 0.25 mPa·s

## Input Please report the recorded viscosity for "CCCCCCO" .
## Output 2.26 ± 0.11 mPa·s

## Input Please report the recorded viscosity for "CCCCCO" .
## Output 1.81 ± 0.09 mPa·s

## Input Please report the recorded viscosity for "CCCCCCCCO" .
## Output 3.4 ± 0.17 mPa·s

## Input Please report the recorded viscosity for "CCCCCCCCCO" .
## Output 4.1 ± 0.21 mPa·s

## Input Please report the recorded viscosity for "O=C1CCCCC1" .
## Output 1.34 ± 0.07 mPa·s

## Input Please report the recorded viscosity for "CCCCCCCO" .
## Output 2.79 ± 0.14 mPa·s

---

Provide the recorded mass density for the entries that follow.
- condition-notes: 318.15 K; 100 kPa; Liquid; Vibrating tube method
Give the value in kg/m3 but do not write kg/m3 after it.

## Input Please report the recorded mass density for "CCCCCCCCO" .
## Output 807.3

## Input Please report the recorded mass density for "CCCCCCCO" .
## Output 804.4

## Input Please report the recorded mass density for "O=C1CCCCC1" .
## Output 924.4

## Input Please report the recorded mass density for "CCCCCO" .
## Output 795.8

## Input Please report the recorded mass density for "CCCCCCO" .
## Output 800.6

## Input Please report the recorded mass density for "CCCCCCCCCCO" .
## Output 812.4

## Input Please report the recorded mass density for "CCCCCCCCCO" .
## Output 810.1

---

- condition-notes: 318.15 K; 100 kPa; Liquid; Concentric cylinders viscometry
Decision: viscosity compared against 3 mPa·s; not below it gives Y, below it gives N.

## Input Dear colleague, could you confirm whether "CCCCCO" has viscosity at or above 3 mPa·s?
## Output N

## Input Dear colleague, could you confirm whether "O=C1CCCCC1" has viscosity at or above 3 mPa·s?
## Output N

## Input Dear colleague, could you confirm whether "CCCCCCO" has viscosity at or above 3 mPa·s?
## Output N

## Input Dear colleague, could you confirm whether "CCCCCCCCCO" has viscosity at or above 3 mPa·s?
## Output Y

## Input Dear colleague, could you confirm whether "CCCCCCCO" has viscosity at or above 3 mPa·s?
## Output Y

## Input Dear colleague, could you confirm whether "CCCCCCCCO" has viscosity at or above 3 mPa·s?
## Output Y

## Input Dear colleague, could you confirm whether "CCCCCCCCCCO" has viscosity at or above 3 mPa·s?
## Output Y

Data credit: the NIST ThermoML archive (doi:10.1021/acs.jced.8b00201)
